From: patent US10624897B2

- assay system: PIP5K1A (Homo sapiens, UniProt Q99755)
- Sequence (Q99755 whole entry): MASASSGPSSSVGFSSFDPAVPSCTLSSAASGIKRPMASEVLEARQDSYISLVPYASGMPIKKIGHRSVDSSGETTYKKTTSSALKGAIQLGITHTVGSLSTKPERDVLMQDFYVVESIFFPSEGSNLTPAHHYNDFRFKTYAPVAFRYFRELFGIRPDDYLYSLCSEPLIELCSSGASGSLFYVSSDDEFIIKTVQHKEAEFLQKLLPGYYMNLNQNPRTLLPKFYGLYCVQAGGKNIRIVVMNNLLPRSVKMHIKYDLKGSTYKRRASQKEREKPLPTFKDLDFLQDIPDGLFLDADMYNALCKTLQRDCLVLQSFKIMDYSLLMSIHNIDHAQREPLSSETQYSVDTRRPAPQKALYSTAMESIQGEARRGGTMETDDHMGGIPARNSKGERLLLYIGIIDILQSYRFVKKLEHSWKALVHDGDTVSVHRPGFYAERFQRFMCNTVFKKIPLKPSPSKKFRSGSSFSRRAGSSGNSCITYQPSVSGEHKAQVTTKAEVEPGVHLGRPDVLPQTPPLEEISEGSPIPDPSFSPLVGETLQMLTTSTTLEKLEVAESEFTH
pKd: −log10 of the molar value.
endpoint name: pKd

Please provide the recorded pKd for CCN1CCN(c2ccc(Nc3ncnc(N(C)C(=O)Nc4c(Cl)c(OC)c(Cl)c(OC)c4Cl)n3)cc2)CC1 [MPT0L145] , tested on PIP5K1A (Homo sapiens, UniProt Q99755). < 5.00

----------
- assay system: BMPR2 (Homo sapiens)
- Sequence (Q13873 27-1038): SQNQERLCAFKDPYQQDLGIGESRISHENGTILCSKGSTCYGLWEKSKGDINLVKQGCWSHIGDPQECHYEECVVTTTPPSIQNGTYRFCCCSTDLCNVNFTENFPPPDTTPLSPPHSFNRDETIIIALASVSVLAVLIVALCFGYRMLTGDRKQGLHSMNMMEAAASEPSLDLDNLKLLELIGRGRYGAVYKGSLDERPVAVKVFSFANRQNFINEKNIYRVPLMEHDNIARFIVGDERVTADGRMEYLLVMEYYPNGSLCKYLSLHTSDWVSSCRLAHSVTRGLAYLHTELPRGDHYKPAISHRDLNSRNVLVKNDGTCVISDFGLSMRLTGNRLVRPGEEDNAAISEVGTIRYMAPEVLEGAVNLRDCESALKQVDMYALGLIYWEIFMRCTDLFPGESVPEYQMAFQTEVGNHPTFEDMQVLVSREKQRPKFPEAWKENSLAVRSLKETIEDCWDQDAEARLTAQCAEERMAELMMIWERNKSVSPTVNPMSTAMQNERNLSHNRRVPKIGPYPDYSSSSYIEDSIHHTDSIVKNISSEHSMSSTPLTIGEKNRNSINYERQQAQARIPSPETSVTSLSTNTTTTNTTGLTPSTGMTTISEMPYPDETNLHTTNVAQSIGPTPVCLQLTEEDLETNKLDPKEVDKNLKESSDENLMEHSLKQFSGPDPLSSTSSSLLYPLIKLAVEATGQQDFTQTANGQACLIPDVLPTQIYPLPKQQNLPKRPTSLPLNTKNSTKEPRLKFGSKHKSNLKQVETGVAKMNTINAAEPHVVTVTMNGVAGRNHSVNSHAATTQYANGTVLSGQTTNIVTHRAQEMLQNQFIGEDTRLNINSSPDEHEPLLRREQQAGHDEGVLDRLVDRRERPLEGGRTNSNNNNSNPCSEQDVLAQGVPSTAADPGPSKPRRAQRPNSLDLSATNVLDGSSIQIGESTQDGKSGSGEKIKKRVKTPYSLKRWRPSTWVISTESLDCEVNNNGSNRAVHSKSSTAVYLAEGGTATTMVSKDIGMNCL
endpoint name: Kd

Return reported Kd; argument: CCN1CCN(c2ccc(Nc3ncnc(N(C)C(=O)Nc4c(Cl)c(OC)c(Cl)c(OC)c4Cl)n3)cc2)CC1 [MPT0L145] > 10 µM
